meta.source: patent US11197862B2

- EXPERIMENTAL TARGET: OCT2 (Homo sapiens, UniProt O15244)
- Sequence (O15244 1-555): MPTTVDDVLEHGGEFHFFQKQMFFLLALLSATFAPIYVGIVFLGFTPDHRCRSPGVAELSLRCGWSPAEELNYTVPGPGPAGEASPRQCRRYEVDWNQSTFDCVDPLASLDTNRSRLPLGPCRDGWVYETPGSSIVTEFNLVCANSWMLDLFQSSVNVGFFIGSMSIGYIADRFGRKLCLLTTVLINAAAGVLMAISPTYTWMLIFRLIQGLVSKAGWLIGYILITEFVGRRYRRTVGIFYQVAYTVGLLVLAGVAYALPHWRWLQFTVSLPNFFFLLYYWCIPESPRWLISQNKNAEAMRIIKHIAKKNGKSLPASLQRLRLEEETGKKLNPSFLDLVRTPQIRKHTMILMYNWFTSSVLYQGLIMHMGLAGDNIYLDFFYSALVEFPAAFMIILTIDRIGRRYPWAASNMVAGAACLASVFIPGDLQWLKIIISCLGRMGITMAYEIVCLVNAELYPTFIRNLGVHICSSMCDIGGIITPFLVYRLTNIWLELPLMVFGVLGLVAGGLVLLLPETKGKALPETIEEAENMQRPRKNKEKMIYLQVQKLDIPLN
- PROTOCOL DESCRIPTION: Inhibition of OCT2-mediated oxaliplatin uptake in transfected MDCK-II cells (protein-free HBSS)
The following compounds are listed with their measured pIC50 values.
pIC50 field: float, defined as -log10 of concentration (mol/L).

COMPOUND: NC1=NCC2c3ccccc3Cc3ccccc3N12 (centres unmarked) [Epinastine]
pIC50: 6.72
//
COMPOUND: C=C1C[C@@H]2[C@H](CC[C@]3(C)C(=O)CC[C@@H]23)[C@@]2(C)C=CC(=O)C=C12
pIC50: 6.72
//
COMPOUND: N=C(N)c1ccc(OCCCCCOc2ccc(C(=N)N)cc2)cc1
pIC50: 7.17

Let us move to another entry and its pIC50.
What value of pIC50 has been reported for the following compound? `C[N+]1(C)[C@@H]2C[C@@H](OC(=O)C(O)(c3cccs3)c3cccs3)C[C@H]1[C@@H]1O[C@@H]12` 6.92
